System: whole cells (NMuLi, C2C12, and L6 cells, isolated cardiomyocytes, human primary fibroblasts)
Assay: Oxygen consumption rate (OCR) in whole cells, Seahorse XF-24 Flux Analyzer
Assay type: cell-based
Conditions: increase in OCR; binned EC50 values
pEC50: −log10 of the molar value.
Parameter: pEC50

Worked cases, answers included:
> print(dat)
                                    compound    test.value
 1  Oc1nc2nonc2cc1Nc1cccc(OC(F)(F)F)c1 [1-229]  4.70 to 5.30
 2   CCCCc1ccc(Nc2nc3nonc3nc2O)c(F)c1 [1-55]        ≥ 5.30
 3  Oc1nc2nonc2nc1Nc1ccc(OCC(F)(F)F)cc1 [1-88]        < 4.70
 4  O=C(COc1cccc(Nc2nc3nonc3nc2O)c1)c1ccc(OC(F)(F)F)cc1 [1-98]  4.70 to 5.30
 5        CCc1cccc(Nc2nc3nonc3nc2O)c1 [1-46]  4.70 to 5.30
 6  Oc1nc2nonc2nc1Nc1cccc(-c2ccccc2)c1 [1-104]        ≥ 5.30
 7      Oc1nc2nonc2nc1Nc1ccc2ccccc2c1 [1-44]        ≥ 5.30
 8  Oc1nc2nonc2nc1Nc1cccc(-c2ccc(OC(F)F)cc2)c1 [1-113]        ≥ 5.30
 9  Oc1nc2nonc2nc1Nc1ccc(SC(F)(F)F)cc1 [1-25]        ≥ 5.30
10  Oc1nc2nonc2nc1Nc1ccc(I)cc1OC(F)(F)F [1-35]        ≥ 5.30

Reported pEC50 for Oc1nc2nonc2nc1NC12CC3CC(CC(C3)C1)C2 [1-81] was 4.70 to 5.30

---

Tested on: whole cells (NMuLi, C2C12, and L6 cells, isolated cardiomyocytes, human primary fibroblasts)
Test: Oxygen consumption rate (OCR) in whole cells, Seahorse XF-24 Flux Analyzer
Type: cell-based
Details: increase in OCR; binned EC50 values
Parameter: EC50

Worked cases, answers included:
> print(dat)
                             chemical.string  parameter  test.value
 1  Oc1nc2nonc2nc1Nc1ccc(F)c(-c2ccc(C(F)(F)F)nc2)c1       EC50  5 to 20 µM
 2  Oc1nc2nonc2nc1Nc1ccc(-c2ccc(C(F)(F)F)nc2)cc1       EC50  5 to 20 µM
 3     Oc1nc2nonc2nc1Nc1ccc(-c2ccc(F)cc2)cc1       EC50      ≤ 5 µM
 4  Oc1nc2nonc2nc1Nc1cccc(-c2cc(F)cc(F)c2)c1       EC50      ≤ 5 µM
 5  CC1(C)c2ccccc2-c2ccc(Nc3nc4nonc4nc3O)cc21       EC50      ≤ 5 µM
 6        Oc1nc2nonc2nc1NC(c1ccccc1)c1ccccc1       EC50     > 20 µM
 7            Oc1nc2nonc2nc1Nc1ccc2c(c1)OCO2       EC50     > 20 µM
 8  Oc1nc2nonc2nc1Nc1ccc(OCCCC(F)(F)F)c(C(F)(F)F)c1       EC50      ≤ 5 µM
 9         Oc1nc2nonc2nc1Nc1ccc(C(F)(F)F)nc1       EC50     > 20 µM
10                Oc1nc2nonc2nc1Nc1ccc(I)cc1       EC50  5 to 20 µM

Reported EC50 for COc1cc(OC(F)(F)F)ccc1Nc1nc2nonc2nc1O was ≤ 5 µM

Reported EC50 for CCCCCCc1ccc(Nc2nc3nonc3nc2O)c(OC(F)(F)F)c1 was 5 to 20 µM

Reported EC50 for Oc1nc2nonc2cc1Nc1cccc(C(F)(F)F)c1 was > 20 µM
